Entries and their measured efflux ratio at 2 h, 3 μM follow.
procedureDetails: in vitro
assayContext: human, Caco-2, pH 7.4

{"molecule": "[2H]C([2H])([2H])NC(=O)c1nnc(NC(=O)C2CC2)cc1Nc1cccc(-c2cnn(C3CC3)c2)c1OC [Example 28]", "efflux ratio at 2 h, 3 μM": 0.7}
{"molecule": "[2H]C([2H])([2H])NC(=O)c1nnc(NC(=O)C2CC2)cc1Nc1cc(F)cc(-c2cnn(C)c2)c1OC [Example 27]", "efflux ratio at 2 h, 3 μM": 0.9}
{"molecule": "[2H]C([2H])([2H])NC(=O)c1nnc(NC(=O)C2C[C@H]2C)cc1Nc1cccc(-c2nnn(C)n2)c1OC (mixture of isomers) [Example 25]", "efflux ratio at 2 h, 3 μM": 1.1}
{"molecule": "[2H]C([2H])([2H])NC(=O)c1nnc(NC(=O)C2CC2)cc1Nc1cccc(-c2ccsn2)c1OC [Example 35]", "efflux ratio at 2 h, 3 μM": 0.5}
{"molecule": "[2H]C([2H])([2H])NC(=O)c1nnc(NC(=O)[C@@H]2C[C@H]2C)cc1Nc1nccc(-c2nc(C)ns2)c1OC [Example 40]", "efflux ratio at 2 h, 3 μM": 0.3}
{"molecule": "[2H]C([2H])([2H])NC(=O)c1nnc(NC(=O)C2CC2)cc1Nc1cccc(-c2noc(COC(C)C)n2)c1OC [Example 2]", "efflux ratio at 2 h, 3 μM": 0.3}
{"molecule": "[2H]C([2H])([2H])NC(=O)c1nnc(NC(=O)C2CC2)cc1Nc1cccc(-c2coc(C)n2)c1OC [Example 17]", "efflux ratio at 2 h, 3 μM": 0.4}

====

procedureDetails: in vitro
assayContext: human, Caco-2, pH 7.4

{"smilesText": "[2H]C([2H])([2H])NC(=O)c1nnc(NC(=O)C2CC2)cc1Nc1cccc(-c2cnc(OC)cn2)c1OC", "Papp A→B at 2 h, 3 μM (×10⁻⁶ cm/s)": 32.3}
{"smilesText": "[2H]C([2H])([2H])NC(=O)c1nnc(NC(=O)C2CC2)cc1Nc1nccc(-c2ncns2)c1OC", "Papp A→B at 2 h, 3 μM (×10⁻⁶ cm/s)": 27.7}
{"smilesText": "[2H]C([2H])([2H])NC(=O)c1nnc(NC(=O)C2CC2)cc1Nc1ccc(F)c(-c2cnn(C)c2)c1OC", "Papp A→B at 2 h, 3 μM (×10⁻⁶ cm/s)": 30}
{"smilesText": "[2H]C([2H])([2H])NC(=O)c1nnc(NC(=O)C2CC2)cc1Nc1cc(F)cc(-c2cnc(C3CC3)cn2)c1OC", "Papp A→B at 2 h, 3 μM (×10⁻⁶ cm/s)": 19.4}
{"smilesText": "[2H]C([2H])([2H])NC(=O)c1nnc(NC(=O)C2CC2)cc1Nc1cccc(-c2noc(C(F)F)n2)c1OC", "Papp A→B at 2 h, 3 μM (×10⁻⁶ cm/s)": 17}
{"smilesText": "[2H]C([2H])([2H])NC(=O)c1nnc(NC(=O)C2CC2)cc1Nc1cccc(-c2cnc(C#N)cn2)c1OC", "Papp A→B at 2 h, 3 μM (×10⁻⁶ cm/s)": 31.7}
{"smilesText": "[2H]C([2H])([2H])NC(=O)c1nnc(NC(=O)C2CC2)cc1Nc1nccc(-c2cnn(C)c2C)c1OC", "Papp A→B at 2 h, 3 μM (×10⁻⁶ cm/s)": 31.5}
{"smilesText": "[2H]C([2H])([2H])NC(=O)c1nnc(NC(=O)C2CC2)cc1Nc1cccc(-c2csc(C)n2)c1OC", "Papp A→B at 2 h, 3 μM (×10⁻⁶ cm/s)": 14.1}
{"smilesText": "[2H]C([2H])([2H])NC(=O)c1nnc(NC(=O)C2CC2)cc1Nc1nccc(-c2cnsc2)c1OC", "Papp A→B at 2 h, 3 μM (×10⁻⁶ cm/s)": 59.5}
{"smilesText": "[2H]C([2H])([2H])NC(=O)c1nnc(NC(=O)C2CC2)cc1Nc1nccc(-c2cn(C)nc2C)c1OC", "Papp A→B at 2 h, 3 μM (×10⁻⁶ cm/s)": 39.3}
{"smilesText": "[2H]C([2H])([2H])NC(=O)c1nnc(NC(=O)C2CC2)cc1Nc1cccc(-c2ccc(C(F)F)cn2)c1OC", "Papp A→B at 2 h, 3 μM (×10⁻⁶ cm/s)": 31.3}
{"smilesText": "[2H]C([2H])([2H])NC(=O)c1nnc(NC(=O)C2CC2)cc1Nc1cccc(-c2noc(CC)n2)c1OC", "Papp A→B at 2 h, 3 μM (×10⁻⁶ cm/s)": 24.2}
{"smilesText": "[2H]C([2H])([2H])NC(=O)c1nnc(NC(=O)[C@@H]2C[C@H]2C)cc1Nc1nccc(-c2nc(C)ns2)c1OC", "Papp A→B at 2 h, 3 μM (×10⁻⁶ cm/s)": 12.6}
{"smilesText": "[2H]C([2H])([2H])NC(=O)c1nnc(NC(=O)C2CC2)cc1Nc1nccc(-c2cnn(C3CC3)c2)c1OC", "Papp A→B at 2 h, 3 μM (×10⁻⁶ cm/s)": 22.7}

====

Quick reference for IC50 among some molecules
Tested on: IFNα-induced pSTAT5 (Tyk2-mediated signal transduction)
procedureDetails: IFNα-induced STAT phosphorylation in human whole blood
Type: cell-based
assayContext: 1 h incubation with compound, 1000 U/mL IFNα A/D for 15 min, CD3 positive population, read-out: Human Whole blood IFNa pSTAT5 IC50
parameter: IC50 (nM)

{"smilesText": "CNC(=O)c1nnc(NC(=O)C2CC2)cc1Nc1cccc(-c2ncns2)c1OC", "unit": "nM", "assayResult": 161}
{"smilesText": "[2H]C([2H])([2H])NC(=O)c1nnc(NC(=O)C2CC2)cc1Nc1cc(F)cc(-c2cocn2)c1OC", "unit": "nM", "assayResult": 84}
{"smilesText": "[2H]C([2H])([2H])NC(=O)c1nnc(NC(=O)C2CC2)cc1Nc1cccc(-c2cnc(OC)cn2)c1OC", "unit": "nM", "assayResult": 410}
{"smilesText": "[2H]C([2H])([2H])NC(=O)c1nnc(NC(=O)C2CC2)cc1Nc1nccc(-c2cnsc2)c1OC", "unit": "nM", "assayResult": 381}
{"smilesText": "[2H]C([2H])([2H])NC(=O)c1nnc(NC(=O)C2CC2)cc1Nc1cccc(-c2ccc(C(F)F)cn2)c1OC", "unit": "nM", "assayResult": 431}
{"smilesText": "[2H]C([2H])([2H])NC(=O)c1nnc(NC(=O)C2CC2)cc1Nc1cccc(-c2nc(C)oc2C)c1OC", "unit": "nM", "assayResult": 152}
{"smilesText": "[2H]C([2H])([2H])NC(=O)c1nnc(NC(=O)C2CC2)cc1Nc1nccc(-c2cnn(C)c2C)c1OC", "unit": "nM", "assayResult": 437}
{"smilesText": "CNC(=O)c1nnc(NC(=O)C2CC2)cc1Nc1cccc(-c2cnc([N+](=O)[O-])cn2)c1OC", "unit": "nM", "assayResult": 44}
{"smilesText": "CNC(=O)c1nnc(NC(=O)C2CC2)cc1Nc1cccc(-c2noc(CCOC)n2)c1OC", "unit": "nM", "assayResult": 9}
{"smilesText": "[2H]C([2H])([2H])NC(=O)c1nnc(NC(=O)C2CC2)cc1Nc1cc(F)cc(-c2cnc(C3CC3)cn2)c1OC", "unit": "nM", "assayResult": 197}
{"smilesText": "[2H]C([2H])([2H])NC(=O)c1nnc(NC(=O)C2CC2)cc1Nc1nccc(-c2ncns2)c1OC", "unit": "nM", "assayResult": 175}

====

Measured Papp A→B at 2 h, 3 μM, listed per entry for reference.
procedureDetails: in vitro
assayContext: human, Caco-2, pH 7.4

{"smilesText": "[2H]C([2H])([2H])NC(=O)c1nnc(NC(=O)C2CC2)cc1Nc1cccc(-c2cnsc2)c1OC", "Papp A→B at 2 h, 3 μM (×10⁻⁶ cm/s)": 20.3}
{"smilesText": "[2H]C([2H])([2H])NC(=O)c1nnc(NC(=O)C2CC2)cc1Nc1cccc(-c2coc(C)n2)c1OC", "Papp A→B at 2 h, 3 μM (×10⁻⁶ cm/s)": 47.4}
{"smilesText": "[2H]C([2H])([2H])NC(=O)c1nnc(NC(=O)C2CC2)cc1Nc1cc(F)cc(-c2cocn2)c1OC", "Papp A→B at 2 h, 3 μM (×10⁻⁶ cm/s)": 35.4}
{"smilesText": "[2H]C([2H])([2H])NC(=O)c1nnc(NC(=O)C2CC2)cc1Nc1cccc(-c2noc(CCF)n2)c1OC", "Papp A→B at 2 h, 3 μM (×10⁻⁶ cm/s)": 64}
{"smilesText": "[2H]C([2H])([2H])NC(=O)c1nnc(NC(=O)C2CC2)cc1Nc1cc(F)cc(-c2cnc(C3(O)CCC3)cn2)c1OC", "Papp A→B at 2 h, 3 μM (×10⁻⁶ cm/s)": 30.9}
{"smilesText": "[2H]C([2H])([2H])NC(=O)c1nnc(NC(=O)C2CC2)cc1Nc1nccc(-c2nccs2)c1OC", "Papp A→B at 2 h, 3 μM (×10⁻⁶ cm/s)": 38.3}
{"smilesText": "[2H]C([2H])([2H])NC(=O)c1nnc(NC(=O)C2CC2)cc1Nc1nccc(-c2cnn(C(F)F)c2)c1OC", "Papp A→B at 2 h, 3 μM (×10⁻⁶ cm/s)": 26.6}
{"smilesText": "[2H]C([2H])([2H])NC(=O)c1nnc(NC(=O)C2CC2)cc1Nc1cc(F)cc(-c2cnn(C)c2)c1OC", "Papp A→B at 2 h, 3 μM (×10⁻⁶ cm/s)": 31.2}
{"smilesText": "[2H]C([2H])([2H])NC(=O)c1nnc(NC(=O)C2CC2)cc1Nc1cccc(-c2nc(C)oc2C)c1OC", "Papp A→B at 2 h, 3 μM (×10⁻⁶ cm/s)": 25.9}
{"smilesText": "[2H]C([2H])([2H])NC(=O)c1nnc(NC(=O)C2CC2)cc1Nc1cccc(-c2ccns2)c1OC", "Papp A→B at 2 h, 3 μM (×10⁻⁶ cm/s)": 23.3}
{"smilesText": "[2H]C([2H])([2H])NC(=O)c1nnc(NC(=O)C2CC2)cc1Nc1cccc(-c2noc(CF)n2)c1OC", "Papp A→B at 2 h, 3 μM (×10⁻⁶ cm/s)": 65}
{"smilesText": "[2H]C([2H])([2H])NC(=O)c1nnc(NC(=O)C2CC2)cc1Nc1nccc(-c2nc(C)ns2)c1OC", "Papp A→B at 2 h, 3 μM (×10⁻⁶ cm/s)": 46.3}
{"smilesText": "[2H]C([2H])([2H])NC(=O)c1nnc(NC(=O)C2CC2)cc1Nc1cc(C)cc(-c2cnc(C3(O)CCC3)cn2)c1OC", "Papp A→B at 2 h, 3 μM (×10⁻⁶ cm/s)": 37.8}
{"smilesText": "[2H]C([2H])([2H])NC(=O)c1nnc(NC(=O)C2CC2)cc1Nc1nccc(-c2cnc(C(C)(C)O)cn2)c1OC", "Papp A→B at 2 h, 3 μM (×10⁻⁶ cm/s)": 18.8}
